Tested on: Endogenous Huntingtin Protein
assay.explanation: Endogenous Huntingtin Protein Assay (ELISA-based MSD electrochemiluminescence)
Assay type: cell-based
conditions: Table 1
Experimental: Compounds of Formula (I) or Formula (II) were tested using the Meso Scale Discovery (MSD) Assay provided in International Application No. PCT/US2016/066042, filed on Dec. 11, 2016 and claiming priority to U.S. Provisional Application 62/265,652 filed on Dec. 10, 2015, the entire contents of which are incorporated herein by reference. The Endogenous Huntingtin Protein assay used in Example 1 was developed using the ELISA-based MSD electrochemiluminescence assay platform. […]
pIC50: −log10 of the molar value.
property: pIC50

Completed entries (count: 5):
Cc1cn2cc(-c3cc4sc(N(C)C5CCN(C)C(C)C5)nc4cn3)cc(F)c2n1 (stereo not shown)
6.30 to 7.00
Cc1cn2cc(-c3cc4sc(OC5CCNCC5)nc4cn3)cc(F)c2n1
6.30 to 7.00
Cc1cn2cc(-c3cc4sc(OC5CC6CCC(C5)N6)nc4cn3)cc(C#N)c2n1 (stereo not shown)
6.30 to 7.00
CN(c1nc2cnc(-c3ccc(-c4cn[nH]c4)cc3O)nc2s1)C1CC(C)(C)NC(C)(C)C1
6.30 to 7.00
Cc1cn2nc(-c3cc(F)c4nc(N(C)[C@@H]5CCN[C@@H](C)C5)sc4c3)ccc2n1
≥ 7.00

# evaluate next
Input line: pIC50 of CN(c1nc2nnc(-c3ccc(-c4cn[nH]c4)cc3O)cc2s1)[C@H]1CCCNC1 on Endogenous Huntingtin Protein?
Output line: ≥ 7.00

---

Test system: Endogenous Huntingtin Protein
assay.explanation: Endogenous Huntingtin Protein Assay (ELISA-based MSD electrochemiluminescence)
Type: cell-based
conditions: Table 1
pIC50: −log10 of the molar value.
property: pIC50

CN(c1ccc2nc(-c3ccc4nn(C)cc4c3)sc2c1)C1CCNCC1
5.52 to 6.00

Input line: Quick check: pIC50 on Endogenous Huntingtin Protein, item Cc1cc(-c2ccc3nc(C4=CCNCC4)sc3c2)cc2cn(C)nc12 ?
Output line: 6.30 to 7.00

Input line: Here is the next compound: Cc1cc(-c2ccc3nc(N(C)C4CC(C)(C)NC(C)(C)C4)sc3c2)cc2cn(C)nc12
Output line: 6.30 to 7.00

---

System: Endogenous Huntingtin Protein
assay.explanation: Endogenous Huntingtin Protein Assay (ELISA-based MSD electrochemiluminescence)
Assay type: cell-based
conditions: Table 1
Listing: IC50 of selected molecules

# example entries with known answers
COc1cc(-c2ncc3nc(N(C)C4CC(C)(C)NC(C)(C)C4)sc3n2)cc2cn(C)nc12
100 to 500 nM
CN1CC=C(c2nc3ccc(-c4ccc5nn(C)cc5c4)cc3s2)CC1
500 to 1000 nM
CCc1cc(-c2ccc3nc(C4CCNCC4)sc3c2)cc2cn(C)nc12
100 to 500 nM
Cn1cc2cc(-c3cnc4nc(NC5CCNCC5)sc4c3)ccc2n1
1000 to 3000 nM

# input for lookup
Input line: Param readout= IC50; system= Endogenous Huntingtin Protein; entry= Cc1nc2c(C#N)cc(-c3ncc4nc(N(C)C5CC6(C)CC[C@](C)(C5)N6)sc4n3)cc2o1 (some centres unmarked) ; returns value.
Output line: ≤ 100 nM

---

Listed next: entries and their corresponding IC50.
System: Endogenous Huntingtin Protein
assay.explanation: Endogenous Huntingtin Protein Assay (ELISA-based MSD electrochemiluminescence)
Format: cell-based
conditions: Table 1
Procedure: Compounds of Formula (I) or Formula (II) were tested using the Meso Scale Discovery (MSD) Assay provided in International Application No. PCT/US2016/066042, filed on Dec. 11, 2016 and claiming priority to U.S. Provisional Application 62/265,652 filed on Dec. 10, 2015, the entire contents of which are incorporated herein by reference. The Endogenous Huntingtin Protein assay used in Example 1 was developed using the ELISA-based MSD electrochemiluminescence assay platform. […]

As a guide, the following entries are already answered.
CN(c1nc2nnc(-c3ccc(-c4cn[nH]c4)cc3O)cc2s1)C1CCNC1 (centres unmarked) [Compound 374]
≤ 100 nM
CN(c1nc2ccc(-c3ccc4nn(C)cc4c3)nc2s1)C1CCNCC1 [Compound 26]
500 to 1000 nM
CNc1cc(-c2cc(F)c3nc(C4CCNCC4)sc3c2)nn2cc(C)nc12 [Compound 167]
≤ 100 nM
CN(c1nc2cnc(-c3cc(C#N)c4nn(C)cc4c3)cc2s1)C1CC2CCCC(C1)N2 (centres unmarked) [Compound 252]
≤ 100 nM
Fc1cc(-c2ccc3[nH]ncc3n2)cc2sc(C3CCNCC3)nc12 [Compound 78]
500 to 1000 nM

Moving on to the next compound.
Input line: Param item = Cn1cc2cc(-c3nc4ncc(C5CCNCC5)cc4s3)ccc2n1 [Compound 43] ; retrieve measured IC50.
Output line: 100 to 500 nM
